Target: κ receptors (Cavia porcellus, UniProt P41144)
Construct: homogenates of guinea-pigs cerebellum (250 μg of protein); from tissue; host or cells: guinea-pig cerebellum
Sequence (P41144 whole entry): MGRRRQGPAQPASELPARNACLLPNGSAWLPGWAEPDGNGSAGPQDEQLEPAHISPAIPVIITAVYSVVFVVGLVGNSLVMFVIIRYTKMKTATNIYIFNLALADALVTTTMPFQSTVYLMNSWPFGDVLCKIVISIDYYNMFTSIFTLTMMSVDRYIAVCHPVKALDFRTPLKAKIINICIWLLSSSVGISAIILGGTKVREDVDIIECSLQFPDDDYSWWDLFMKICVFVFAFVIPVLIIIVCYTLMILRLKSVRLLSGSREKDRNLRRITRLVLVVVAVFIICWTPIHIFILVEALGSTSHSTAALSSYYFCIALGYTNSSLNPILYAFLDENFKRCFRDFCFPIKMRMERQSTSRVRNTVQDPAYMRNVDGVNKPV
Assay: Affinity to κ receptors, [3H]U-69593 binding on cerebellum homogenates
Set-up: species or system guinea-pigs
Details: guinea-pig cerebellum, 0.7 nM [3H]U-69593; read-out: Ki (nM) κ Receptor
MEASURED_ATTRIBUTE: Ki (nM)
Answer in nM, number only, no unit symbol.

COMPOUND | SUBJECT_OF_TEST | UNIT_INFO | Ki
CCOc1ccc2c3c1OC1C(OC4OC(C(=O)NCCS)C(O)C(O)C4O)C=CC4C(C2)N(C)CCC341 (stereo not drawn) | κ receptors (Cavia porcellus, UniProt P41144) | nM | 220
COc1ccc2c3c1OC1C(OC4OC(C(=O)NCCS)C(O)C(O)C4O)C=CC4C(C2)N(C)CCC341 (stereo not drawn) | κ receptors (Cavia porcellus, UniProt P41144) | nM | 100

Now let's try a different one.
Tell me the measured Ki of CCOc1ccc2c3c1OC1C(OC4OC(C(=O)NCCSSCCNC(=O)C5OC(OC6C=CC7C8Cc9ccc(OCC)c%10c9C7(CCN8C)C6O%10)C(O)C(O)C5O)C(O)C(O)C4O)C=CC4C(C2)N(C)CCC341 (stereo not drawn) , please.
25
